- TEST NAME: in vivo
- REPORTED CONDITIONS: mongrel, dog, iv, 0.25 mg/kg, t1/2
VALUE TYPE: half-life (h)

The examples below pair each entry with its known result.
{"COMPOUND": "O=C(Nc1ccc(S(=O)(=O)Nc2ccccc2C(=O)c2ccccc2)cc1)OCC1CCCO1 (stereo unspecified)", "OBSERVED RESULT": 1.9}
{"COMPOUND": "O=C(Nc1ccc(S(=O)(=O)Nc2ccccc2C(=O)c2ccccn2)cc1)OCC1CCCO1 (stereo in doubt; 29)", "OBSERVED RESULT": 2.2}
{"COMPOUND": "CC(=O)Nc1ccc(S(=O)(=O)Nc2ccccc2C(=O)c2ccccn2)cc1", "OBSERVED RESULT": 1.2}

A. CC(=O)Nc1ccc(S(=O)(=O)Nc2ccccc2C(=O)c2ccccc2)cc1
B. O=C(NCCCN1CCCCC1)Nc1ccc(S(=O)(=O)Nc2ccccc2C(=O)c2ccccc2)cc1
C. O=C(Nc1ccc(S(=O)(=O)Nc2ccccc2C(=O)c2ccc(F)cn2)cc1)OCC1CCCO1 (stereo in doubt; 32)
Kindly order the items shown according to half-life, from the highest value down. Write out the labels following the order that was asked for.
C, B, A
(C: 2.8 h, B: 1.5 h, A: 0.5 h)

* * *

- TEST NAME: in vivo
- REPORTED CONDITIONS: Sprague-Dawley, rat, po, 10 mg/kg, F
VALUE TYPE: bioavailability (%)

The examples below pair each entry with its known result.
{"MOLECULE": "CC(=O)Nc1ccc(S(=O)(=O)Nc2ccccc2C(=O)c2ccccn2)cc1", "UNITS SYMBOL": "%", "bioavailability": 11}
{"MOLECULE": "O=C(Nc1ccc(S(=O)(=O)Nc2ccccc2C(=O)c2ccccc2)cc1)OCC1CCCO1 (stereo not given)", "UNITS SYMBOL": "%", "bioavailability": 3}

P. CC(=O)Nc1ccc(S(=O)(=O)Nc2ccccc2C(=O)c2ccccc2)cc1
Q. O=C(NCCCN1CCCCC1)Nc1ccc(S(=O)(=O)Nc2ccccc2C(=O)c2ccccc2)cc1
Which numeric bioavailability is bigger, that of P or that of Q ? Output the label that corresponds to your choice.
Q

* * *

- TEST NAME: in vivo
- REPORTED CONDITIONS: Sprague-Dawley, rat, t1/2
VALUE TYPE: half-life (h)

{"COMPOUND": "CC(=O)Nc1ccc(S(=O)(=O)Nc2ccccc2C(=O)c2ccccn2)cc1", "OBSERVED RESULT": 1.2}

P. O=C(Nc1ccc(S(=O)(=O)Nc2ccccc2C(=O)c2ccc(F)cn2)cc1)OCC1CCCO1 (stereo in doubt; 32)
Q. O=C(Nc1ccc(S(=O)(=O)Nc2ccccc2C(=O)c2ccccn2)cc1)OCC1CCCO1 (stereo in doubt; 29)
Which numeric half-life is bigger, that of P or that of Q ? Output the label that corresponds to your choice.
Q
(Q: 1.7 h, P: 1.1 h)

* * *

- System: Plasma
- TEST NAME: Drug level in transgenic rat plasma at 0.12 mg/kg, iv
- Type: ADME, organism-based
- Set-up: dose 0.12 mg/kg, route intravenous
- REPORTED CONDITIONS: in vivo
VALUE TYPE: concentration (nM)
Respond with the bare value in nM.

Short answer on Plasma for O=C(Nc1ccc(S(=O)(=O)Nc2ccccc2C(=O)c2ccccc2)cc1)OCC1CCCO1 (stereo unspecified) , concentration: 80

* * *

- TEST NAME: Metabolic stability in Sprague-Dawley rat liver microsomes after 30 mins
- Assay type: ADME, Microsome
- REPORTED CONDITIONS: read-out: Stability
VALUE TYPE: remaining at 0.5 h

Recorded remaining at 0.5 h (compound CC(=O)Nc1ccc(S(=O)(=O)Nc2ccccc2C(=O)c2ccccc2)cc1 ): < 10%

* * *

- Species on record: Rattus norvegicus
- REPORTED CONDITIONS: in vivo
VALUE TYPE: t1/2 (h)

A. O=C(Nc1ccc(S(=O)(=O)Nc2ccccc2C(=O)c2ccccc2)cc1)OCC1CCCO1 (centres undefined)
B. CC(=O)Nc1ccc(S(=O)(=O)Nc2ccccc2C(=O)c2ccccc2)cc1
C. O=C(NCCCN1CCCCC1)Nc1ccc(S(=O)(=O)Nc2ccccc2C(=O)c2ccccc2)cc1
D. O=C(Nc1ccc(S(=O)(=O)Nc2ccccc2C(=O)c2ccccn2)cc1)OCC1CCCO1 (racemic)
Put the items in sequence by t1/2, from largest down. Write out the labels following the order that was asked for.
C, A, D, B

* * *

- TEST NAME: Metabolic stability in human liver microsomes after 30 mins
- Format: ADME, Microsome
- REPORTED CONDITIONS: read-out: Stability
VALUE TYPE: remaining at 0.5 h

Recorded remaining at 0.5 h (compound CC(=O)Nc1ccc(S(=O)(=O)Nc2ccccc2C(=O)c2ccccc2)cc1 ): < 10%

* * *

- TEST NAME: in vivo
- REPORTED CONDITIONS: Sprague-Dawley, rat, iv, 2 mg/kg
VALUE TYPE: clearance (mL/min/kg)

The examples below pair each entry with its known result.
{"COMPOUND": "O=C(Nc1ccc(S(=O)(=O)Nc2ccccc2C(=O)c2ccccc2)cc1)OCC1CCCO1 (stereo unspecified)", "clearance / mL/min/kg": 43}
{"COMPOUND": "O=C(NCCCN1CCCCC1)Nc1ccc(S(=O)(=O)Nc2ccccc2C(=O)c2ccccc2)cc1", "clearance / mL/min/kg": 29}
{"COMPOUND": "CC(=O)Nc1ccc(S(=O)(=O)Nc2ccccc2C(=O)c2ccccc2)cc1", "clearance / mL/min/kg": 26}

1. O=C(Nc1ccc(S(=O)(=O)Nc2ccccc2C(=O)c2ccccn2)cc1)OCC1CCCO1 (stereo in doubt; 29)
2. O=C(Nc1ccc(S(=O)(=O)Nc2ccccc2C(=O)c2ccc(F)cn2)cc1)OCC1CCCO1 (stereo in doubt; 32)
Which numeric clearance is bigger, that of 1 or that of 2 ? Output the label that corresponds to your choice.
1

* * *

- System: Spinal cord
- TEST NAME: Drug level in transgenic rat spinal cord at 1.2 mg/kg, iv
- Assay type: ADME, organism-based
- Set-up: dose 1.2 mg/kg, route intravenous
- REPORTED CONDITIONS: in vivo
VALUE TYPE: concentration (nM)
Respond with the bare value in nM.

Recorded concentration (molecule O=C(Nc1ccc(S(=O)(=O)Nc2ccccc2C(=O)c2ccccc2)cc1)OCC1CCCO1 (stereo unspecified) ): 597

* * *

- TEST NAME: Metabolic stability in monkey liver microsomes after 30 mins
- Format: ADME, Macaca mulatta, Microsome
- REPORTED CONDITIONS: rhesus monkey, read-out: Stability
VALUE TYPE: remaining at 0.5 h

Recorded remaining at 0.5 h (compound CC(=O)Nc1ccc(S(=O)(=O)Nc2ccccc2C(=O)c2ccccc2)cc1 ): < 10%

* * *

- System: Brain
- TEST NAME: Drug level in transgenic rat brain at 1.2 mg/kg, iv
- Type: ADME, organism-based
- Parameters: dose 1.2 mg/kg, route intravenous
- REPORTED CONDITIONS: in vivo
VALUE TYPE: concentration (nM)
Respond with the bare value in nM.

Recorded concentration (compound O=C(Nc1ccc(S(=O)(=O)Nc2ccccc2C(=O)c2ccccc2)cc1)OCC1CCCO1 (stereo unspecified) ): 438

* * *

- Test system: human MDR1 (P-gp)
- TEST NAME: Apparent permeability in pig LLC-PK1 cells transfected with human MDR1
- Format: ADME, cell-based, Sus scrofa
- REPORTED CONDITIONS: LLC-PK1
VALUE TYPE: Papp (×10⁻⁶ cm/s)

{"COMPOUND": "O=C(Nc1ccc(S(=O)(=O)Nc2ccccc2C(=O)c2ccc(F)cn2)cc1)OCC1CCCO1 (stereo in doubt; 30)", "OBSERVED RESULT": 26}
{"COMPOUND": "O=C(NCCCN1CCCCC1)Nc1ccc(S(=O)(=O)Nc2ccccc2C(=O)c2ccccc2)cc1", "OBSERVED RESULT": 34}
{"COMPOUND": "O=C(Nc1ccc(S(=O)(=O)Nc2ccccc2C(=O)c2ccccn2)cc1)OCC1CCCO1 (stereo in doubt; 29)", "OBSERVED RESULT": 33}
{"COMPOUND": "O=C(Nc1ccc(S(=O)(=O)Nc2ccccc2C(=O)c2ccccc2)cc1)OCC1CCCO1 (stereo not given)", "OBSERVED RESULT": 26}
{"COMPOUND": "CC(=O)Nc1ccc(S(=O)(=O)Nc2ccccc2C(=O)c2ccccc2)cc1", "OBSERVED RESULT": 27}

* * *

- TEST NAME: in vivo
- REPORTED CONDITIONS: mongrel, dog, iv, 0.25 mg/kg, CL
VALUE TYPE: clearance (mL/min/kg)

The examples below pair each entry with its known result.
{"COMPOUND": "O=C(NCCCN1CCCCC1)Nc1ccc(S(=O)(=O)Nc2ccccc2C(=O)c2ccccc2)cc1", "VALUE TYPE": "clearance", "OBSERVED RESULT": 17}
{"COMPOUND": "CC(=O)Nc1ccc(S(=O)(=O)Nc2ccccc2C(=O)c2ccccn2)cc1", "VALUE TYPE": "clearance", "OBSERVED RESULT": 1.2}
{"COMPOUND": "O=C(Nc1ccc(S(=O)(=O)Nc2ccccc2C(=O)c2ccccn2)cc1)OCC1CCCO1 (stereo in doubt; 29)", "VALUE TYPE": "clearance", "OBSERVED RESULT": 2.9}

I. O=C(Nc1ccc(S(=O)(=O)Nc2ccccc2C(=O)c2ccccc2)cc1)OCC1CCCO1 (stereo not given)
II. CC(=O)Nc1ccc(S(=O)(=O)Nc2ccccc2C(=O)c2ccccc2)cc1
Which numeric clearance is bigger, that of I or that of II ? Output the label that corresponds to your choice.
I
(I: 17 mL/min/kg, II: 7.5 mL/min/kg)
